# Test system: B. subtilis 168;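 also: first quartile when negative (synergy) and third quartile when positive (antagonism)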
# Assay: Bliss interaction score (quartile over a dose matrix) (fitness difference); higher = more antagonism (negative = synergy)
# Condition: main component drawn
Quick reference for Bliss interaction score among some compounds
Recorded Metric: Bliss interaction score

{"Compound": "CC[C@H](C)[C@H](N)C1=N[C@H](C(=O)N[C@@H](CC(C)C)C(=O)N[C@H](CCC(=O)O)C(=O)N[C@H](C(=O)N[C@H]2CCCCNC(=O)[C@H](CC(N)=O)NC(=O)[C@@H](CC(=O)O)NC(=O)[C@H](Cc3cnc[nH]3)NC(=O)[C@@H](Cc3ccccc3)NC(=O)[C@H]([C@@H](C)CC)NC(=O)[C@@H](CCCN)NC2=O)[C@@H](C)CC)CS1 [Bacitracin] + O=C(O[C@@H]1Cc2c(O)cc(O)cc2O[C@@H]1c1cc(O)c(O)c(O)c1)c1cc(O)c(O)c(O)c1 [EGCG]", "Target Entity": "B. subtilis 168", "Recorded Metric": "Bliss interaction score", "Assay Value": 0.0767}
{"Compound": "CC[C@H](C)[C@H](N)C1=N[C@H](C(=O)N[C@@H](CC(C)C)C(=O)N[C@H](CCC(=O)O)C(=O)N[C@H](C(=O)N[C@H]2CCCCNC(=O)[C@H](CC(N)=O)NC(=O)[C@@H](CC(=O)O)NC(=O)[C@H](Cc3cnc[nH]3)NC(=O)[C@@H](Cc3ccccc3)NC(=O)[C@H]([C@@H](C)CC)NC(=O)[C@@H](CCCN)NC2=O)[C@@H](C)CC)CS1 [Bacitracin] + COc1cccc2c1C(=O)c1c(O)c3c(c(O)c1C2=O)C[C@@](O)(C(=O)CO)C[C@@H]3O[C@H]1C[C@H](N)[C@H](O)[C@H](C)O1 [Doxorubicin]", "Target Entity": "B. subtilis 168", "Recorded Metric": "Bliss interaction score", "Assay Value": 0.0797}
